Reference for the values: the Immune Epitope Database (IEDB)

# SYSTEM NAME: HLA-B*58:01
# EXPERIMENT NOTES: IEDB peptide-MHC binding, purified MHC/direct/fluorescence; filed as Kd, often an IC50 or EC50 that approximates it; bounds were set here for any values at or beyond the usual limits of such assays
# CONDITION NOTES: source organism: Giardia intestinalis
PROPERTY: Kd

(Q) State, for HLA-B*58:01, measured Kd of the sequence listed here: `RTMPLSRFT`
(A) ≥ 20 µM

###

# SYSTEM NAME: HLA-A*01:01
# EXPERIMENT NOTES: IEDB peptide-MHC binding, purified MHC/competitive/fluorescence; filed as Kd, often an IC50 or EC50 that approximates it; bounds were set here for any values at or beyond the usual limits of such assays
# CONDITION NOTES: source organism: Streptococcus pneumoniae D39
PROPERTY: pKd
Reminder that pKd is minus the log10 of a molar concentration.

(Q) Supply reported pKd belonging to this sequence: `GVNFNLYYY`
(A) 7.68

###

# SYSTEM NAME: HLA-A*03:01
# EXPERIMENT NOTES: IEDB peptide-MHC binding, purified MHC/competitive/fluorescence; filed as Kd, often an IC50 or EC50 that approximates it; bounds were set here for any values at or beyond the usual limits of such assays
# CONDITION NOTES: source organism: Entamoeba histolytica HM-1:IMSS
Give measured Kd for each item. Keep answers brief.

(Q) Read off the recorded Kd for `TLPGCLIIL`
(A) ≥ 20 µM

(Q) Indicate the recorded Kd value for this sequence: `SIYFLRGNH`
(A) ≥ 20 µM

###

# SYSTEM NAME: HLA-B*44:03
# EXPERIMENT NOTES: IEDB peptide-MHC binding, purified MHC/competitive/fluorescence; bounds were set here for any values at or beyond the usual limits of such assays
# CONDITION NOTES: source organism: Homo sapiens
pIC50: −log10 of the molar value.
PROPERTY: pIC50

(Q) Read the entry `FPHTELANL` and write its reported pIC50.
(A) ≤ 4.70

###

# SYSTEM NAME: HLA-B*58:01
# EXPERIMENT NOTES: IEDB peptide-MHC binding, purified MHC/competitive/radioactivity; filed as Kd, often an IC50 or EC50 that approximates it; bounds were set here for any values at or beyond the usual limits of such assays
# CONDITION NOTES: source organism: Dengue virus 1 Singapore/S275/1990
PROPERTY: pKd
# log scale: pKd equals minus log10 of the concentration in mol/L

(Q) Supply measured pKd of `KQIQRVETW` in your reply.
(A) 7.97

###

# SYSTEM NAME: HLA-A*31:01
# EXPERIMENT NOTES: IEDB peptide-MHC binding, purified MHC/direct/fluorescence; filed as Kd, often an IC50 or EC50 that approximates it; bounds were set here for any values at or beyond the usual limits of such assays
# CONDITION NOTES: source organism: Burkholderia lata
PROPERTY: Kd (nM)
Hi! Could you send only the number? It should be in nM, unit omitted.

(Q) Look up and report measured Kd for this entry: `SINDPRWGR`
(A) 27.4

###

# SYSTEM NAME: HLA-A*24:02
# EXPERIMENT NOTES: IEDB peptide-MHC binding, purified MHC/competitive/fluorescence; bounds were set here for any values at or beyond the usual limits of such assays
# CONDITION NOTES: source organism: Vaccinia virus
PROPERTY: pIC50
Expect pIC50 as a plain number equal to -log10 of the molar concentration.

(Q) Give reported pIC50 value for `PYEGGKVFA`
(A) 4.86
